experimental.target: CST (CTC1-STN1-TEN1) (human, UniProt Q2NKJ3;Q9H668;Q86WV5 1-1217;1-368;1-123)
Sequence (Q2NKJ3 whole entry, chain 1 of 3): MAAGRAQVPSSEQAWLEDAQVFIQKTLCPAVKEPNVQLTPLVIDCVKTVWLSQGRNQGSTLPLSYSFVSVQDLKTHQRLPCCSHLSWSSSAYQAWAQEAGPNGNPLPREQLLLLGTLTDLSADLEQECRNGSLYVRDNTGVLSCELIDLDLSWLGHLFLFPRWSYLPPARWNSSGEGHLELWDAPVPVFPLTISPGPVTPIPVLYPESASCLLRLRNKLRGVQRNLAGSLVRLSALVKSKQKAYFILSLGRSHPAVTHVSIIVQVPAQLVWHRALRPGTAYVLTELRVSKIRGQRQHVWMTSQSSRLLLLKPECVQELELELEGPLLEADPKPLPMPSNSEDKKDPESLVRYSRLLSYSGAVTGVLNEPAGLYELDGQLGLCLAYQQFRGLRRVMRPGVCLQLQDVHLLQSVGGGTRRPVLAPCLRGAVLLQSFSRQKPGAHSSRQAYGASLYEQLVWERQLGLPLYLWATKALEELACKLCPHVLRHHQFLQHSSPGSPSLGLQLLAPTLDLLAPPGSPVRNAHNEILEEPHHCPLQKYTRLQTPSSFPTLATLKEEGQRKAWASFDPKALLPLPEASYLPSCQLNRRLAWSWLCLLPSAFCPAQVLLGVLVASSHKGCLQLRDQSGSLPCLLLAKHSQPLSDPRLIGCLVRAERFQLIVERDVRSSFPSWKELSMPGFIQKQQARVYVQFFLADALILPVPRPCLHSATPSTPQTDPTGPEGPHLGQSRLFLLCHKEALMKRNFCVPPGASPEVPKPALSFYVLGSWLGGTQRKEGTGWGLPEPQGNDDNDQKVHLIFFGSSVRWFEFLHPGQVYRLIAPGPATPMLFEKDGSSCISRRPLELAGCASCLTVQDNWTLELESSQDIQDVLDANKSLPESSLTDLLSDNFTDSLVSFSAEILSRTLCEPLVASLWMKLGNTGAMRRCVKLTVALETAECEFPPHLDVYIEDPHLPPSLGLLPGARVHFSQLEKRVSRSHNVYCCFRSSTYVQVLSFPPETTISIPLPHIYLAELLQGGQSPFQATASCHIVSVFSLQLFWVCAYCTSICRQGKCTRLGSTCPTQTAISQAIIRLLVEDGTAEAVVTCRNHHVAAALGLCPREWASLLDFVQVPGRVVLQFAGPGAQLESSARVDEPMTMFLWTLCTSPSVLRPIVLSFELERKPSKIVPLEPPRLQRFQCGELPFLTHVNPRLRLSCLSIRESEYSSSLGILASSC
Sequence (Q9H668 whole entry, chain 2 of 3): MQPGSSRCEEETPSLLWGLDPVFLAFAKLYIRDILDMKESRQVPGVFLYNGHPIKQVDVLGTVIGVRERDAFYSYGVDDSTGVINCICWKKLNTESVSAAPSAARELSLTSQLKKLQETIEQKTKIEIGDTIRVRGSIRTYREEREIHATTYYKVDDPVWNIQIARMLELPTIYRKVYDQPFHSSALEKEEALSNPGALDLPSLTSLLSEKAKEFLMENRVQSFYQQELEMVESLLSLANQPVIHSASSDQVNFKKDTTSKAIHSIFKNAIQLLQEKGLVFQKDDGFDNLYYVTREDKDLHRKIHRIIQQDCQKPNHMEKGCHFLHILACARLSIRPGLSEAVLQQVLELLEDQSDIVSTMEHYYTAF
Sequence (Q86WV5 whole entry, chain 3 of 3): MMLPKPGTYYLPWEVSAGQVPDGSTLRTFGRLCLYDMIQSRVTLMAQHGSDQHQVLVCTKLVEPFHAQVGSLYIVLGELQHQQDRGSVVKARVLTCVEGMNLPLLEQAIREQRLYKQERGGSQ
experiment.notes: fluorescence anisotropy; 200 mM LiCl; FA: 200 mM NaCl, KCl or LiCl, 20 mM HEPES pH 7.4, 1 mM DTT, 22-25 C, 375 or 750 pM oligo, Kd,app +/- SEM; EMSA: 20 mM HEPES pH 7.4, 200 mM KCl, 1 nM 32P oligo
test.context: protein: recombinant; tags: 2xFLAG N-term on CTC1; 6xHis N-term on STN1 and TEN1; copies: 1;1;1; label: 5' fluorescein; intramolecular G4 in middle; linear in LiCl
readout.type: Kd (nM)
Give just the number in nM; leave the unit off.

*Q* Given the entry AGTGTGAGTTAGGGTTAGGGTTAGGGTTAGGGTGAGTGTG (structured_DNA) [Tel40 Middle G4] , report its measured Kd.
*A* 1.94
